testDetails: qHTS assay to identify small molecule antagonists of the sonic hedgehog signaling (Shh) pathway - cell viability counter screen (AID 1259367); note: nearly all actives have a fitted effect of over 55% in size
setupConditions: NIH/3T3 Gli1-Luc viability, CellTiter-Fluor, 24 h; series mostly up to 92.4 µM
Results filed as inconclusive are left out. Active and inactive are the calls of the source. Calls come from the whole dose curve; as a rule, active = well fitted cell-killing curve with a large enough effect in the repeat runs; inconclusive = weak or mixed curves, or effect the other way; inactive = no such curve, though single readings can be large or run the other way.
Thanks in advance; please answer with one of these: active, inactive

Example results:
O=C(O)Cn1c(=O)n(Cc2ccc(Br)cc2F)c(=O)c2ccc(Cl)cc21
active
C=CC(=O)OCCC(=O)O
inactive
CC1(C)CC(N)CC(C)(CN)C1 (centres undefined)
inactive

Name the outcome recorded for CC(=O)OC1CC(C)OC(C)O1 (centres undefined) in the assay.
inactive

---

testDetails: qHTS assay for small molecule agonists of the p53 signaling pathway (AID 651631); note: nearly all actives have a fitted effect of over 15% in size
setupConditions: HCT-116 p53RE-bla reporter, beta-lactamase FRET ratio, 16 h; series mostly up to 73.3 µM
Results filed as inconclusive are left out. Active and inactive are the calls of the source. The call rests on the fitted dose curve.
recordedMetric: outcome

CC(C)=CCl
inactive
COc1ccc(OC)cc1
inactive
COc1ccc([N+](=O)[O-])cc1N
inactive
CC(O)CC(C)(C)O (stereo not given)
inactive
CC1(C)CC(N)CC(C)(CN)C1 (stereo not given)
inactive
Brc1ccc(Br)c(Br)c1
inactive
CSc1ccc(Cl)cc1
inactive
CC(CCO)CC(C)(C)C (stereo not given)
inactive

Quick one: give measured outcome for O=C(O)Cn1c(=O)n(Cc2ccc(Br)cc2F)c(=O)c2ccc(Cl)cc21
inactive

Quick one: give measured outcome for CN1C(=O)CC[C@H]1c1cccnc1
inactive

Quick one: give measured outcome for COc1ccc(C)cc1N
inactive

Quick one: give measured outcome for CC(=O)Oc1ccc(C)cc1
inactive

Quick one: give measured outcome for CCCCCCO
inactive

Quick one: give measured outcome for CCOC(=O)n1ccn(C)c1=S
inactive

Quick one: give measured outcome for CC1(C)S[C@@H]2[C@H](NC(=O)COc3ccccc3)C(=O)N2[C@H]1C(=O)O
inactive

Quick one: give measured outcome for CC(C)OC(=O)COc1ccc(Cl)cc1Cl
inactive

Quick one: give measured outcome for C=CC(C)CCCC(C)(C)O (stereo not given)
inactive

Quick one: give measured outcome for CC(C)CCCCCCCOC(=O)CCCCC(=O)OCCCCCCCC(C)C
inactive

Quick one: give measured outcome for CN(C)CCOC(=O)COc1ccc(Cl)cc1
inactive

Quick one: give measured outcome for CCCCCCC=O
inactive

---

testDetails: qHTS assay to identify small molecule agonists or antagonists of the thyroid stimulating hormone receptor (TSHR) signaling pathway - wild type cell line counter screen (AID 1259384)
setupConditions: HEK293 wild type, cAMP HTRF counter-screen; series mostly up to 92.4 µM
Records with an inconclusive call do not appear. The source made the active and inactive calls. Calls come from the whole dose curve.
recordedMetric: outcome

CCCOC(=O)c1ccccc1
inactive
CN(C)c1ccc(O)c2c1C[C@H]1C[C@H]3[C@H](N(C)C)C(=O)C(C(N)=O)=C(O)[C@@]3(O)C(=O)C1=C2O
inactive
CCCCC(C=O)CC (stereo not drawn)
inactive
CCOCC(=O)O
inactive
O=C1C(c2[nH]c3ccccc3c2O)=Nc2ccccc21
inactive

Quick one: give measured outcome for CC(C)=CCl
inactive

Quick one: give measured outcome for CCCCCCCCCCCC(=O)OC
inactive

Quick one: give measured outcome for COc1ccc(N)c(C)c1
inactive

Quick one: give measured outcome for CC(C)CC(C)O (stereo not drawn)
inactive

Quick one: give measured outcome for CC(C)OC(=O)COc1ccc(Cl)cc1Cl
inactive

---

measuredOn: Cytochrome P450 2D6 (Homo sapiens) (UniProt P10635)
Sequence (P10635 whole entry, looked up): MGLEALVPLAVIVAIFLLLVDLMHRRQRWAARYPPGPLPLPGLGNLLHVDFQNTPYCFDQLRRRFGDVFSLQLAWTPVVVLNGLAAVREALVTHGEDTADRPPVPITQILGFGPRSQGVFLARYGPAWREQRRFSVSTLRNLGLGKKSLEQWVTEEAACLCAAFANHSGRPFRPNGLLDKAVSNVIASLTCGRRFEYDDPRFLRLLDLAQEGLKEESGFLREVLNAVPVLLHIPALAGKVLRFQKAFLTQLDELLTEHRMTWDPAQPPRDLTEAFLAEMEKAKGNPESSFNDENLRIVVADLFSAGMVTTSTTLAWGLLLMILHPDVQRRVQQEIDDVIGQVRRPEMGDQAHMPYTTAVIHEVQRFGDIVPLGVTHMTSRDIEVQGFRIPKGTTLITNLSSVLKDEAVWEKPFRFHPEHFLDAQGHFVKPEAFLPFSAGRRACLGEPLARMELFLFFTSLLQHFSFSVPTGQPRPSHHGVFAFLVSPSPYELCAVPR
testDetails: Cytochrome P450 Family 2 Subfamily D Member 6 (CYP2D6) small molecule antagonists: luciferase reporter qHTS assay (AID 1671196); note: nearly all actives have a fitted effect of over 50% in size
setupConditions: P450-Glo CYP2D6 enzyme assay, luciferin luminescence, 1 h; series mostly up to 115 µM
Records with an inconclusive call do not appear. The source made the active and inactive calls. The call rests on the fitted dose curve; in most records, active means well fitted inhibition curve with a large enough effect in the repeat runs; inconclusive means weak or mixed curves; inactive means no such curve, though single readings can be large or run the other way.
Thanks in advance; please answer with one of these: Yes = active, No = inactive

Name the outcome recorded for COCCOC(=O)c1ccccc1C(=O)OCCOC in the assay.
No

---

measuredOn: Luciferin 4-monooxygenase (Photinus pyralis)
testDetails: qHTS assay to identify small molecule inhibitors of firefly luciferase (AID 1224835); note: nearly all actives have a fitted effect of over 25% in size
setupConditions: purified P. pyralis luciferase, luminescence inhibition; series mostly up to 115 µM
Records with an inconclusive call do not appear. Active and inactive are the calls of the source. Calls follow the shape of the dose curve; as a rule, active = well fitted inhibition curve with a large enough effect in the repeat runs; inconclusive = weak or mixed curves; inactive = flat fitted curve, though single readings scatter.
recordedMetric: outcome

Cc1ccc(S(=O)(=O)N=C=O)cc1
inactive
NCCCCCCN
inactive
CN(C)c1ccc(O)c2c1C[C@H]1C[C@H]3[C@H](N(C)C)C(=O)C(C(N)=O)=C(O)[C@@]3(O)C(=O)C1=C2O
inactive

---

testDetails: A CellTox Green Cytotoxicity Assay to monitor cytotoxicity in HEK293 cells - 24 hour (AID 1224875); note: nearly all actives have a fitted effect of over 45% in size
setupConditions: CellTox Green fluorescence; series mostly up to 76.8 µM
Inconclusive results are not listed. The source made the active and inactive calls. Calls follow the shape of the dose curve; as a rule, active = well fitted activation curve with a large enough effect in the repeat runs; inconclusive = weak or mixed curves; inactive = flat fitted curve, though single readings scatter.
recordedMetric: outcome

Guide cases for outcome, answers given:
CC1(C)OC[C@@H]2O[C@@]3(C(=O)O)OC(C)(C)O[C@H]3[C@@H]2O1
inactive
COc1ccc([N+](=O)[O-])cc1N
inactive
CCCCCCCCCCCCCCCC(=O)OC(C)C
inactive
CN(C)CCOC(=O)COc1ccc(Cl)cc1
inactive

Quick one: give measured outcome for CCCCCCCCCCN
inactive

Quick one: give measured outcome for O=C(O)Cn1c(=O)n(Cc2ccc(Br)cc2F)c(=O)c2ccc(Cl)cc21
inactive

Quick one: give measured outcome for CCCCCCCCCCCC(=O)OC
inactive

Quick one: give measured outcome for CC(=O)CC(C)(C)O
inactive

Quick one: give measured outcome for CCCCOC(=O)c1ccc(N)cc1
inactive

Quick one: give measured outcome for C=C(C)[C@H]1CC=C(C)C(=O)C1
inactive

Quick one: give measured outcome for CCc1ccccc1CC
inactive

Quick one: give measured outcome for O=[N+]([O-])c1ccc2nc[nH]c2c1
inactive

Quick one: give measured outcome for C[Si]1(C)O[Si](C)(C)O[Si](C)(C)O[Si](C)(C)O1
inactive

Quick one: give measured outcome for O=C1CCCC1
inactive

Quick one: give measured outcome for COc1ccccc1OCC(O)CO (stereo not given)
inactive

Quick one: give measured outcome for CCCCCC(=O)O
inactive

Quick one: give measured outcome for N#Cc1ccccc1
inactive

Quick one: give measured outcome for CSc1ccc(Cl)cc1
inactive

Quick one: give measured outcome for CCOCC(=O)O
inactive

Quick one: give measured outcome for CC(C)(C#N)c1cc(Cn2cncn2)cc(C(C)(C)C#N)c1
inactive

Quick one: give measured outcome for O=C(O)/C=C/C(=O)O
inactive

Quick one: give measured outcome for COC(=O)CCCC(=O)OC
inactive

Quick one: give measured outcome for O=C(O)c1ccc(C(=O)O)c(C(=O)O)c1
inactive

Quick one: give measured outcome for CCO[Si](CCCN)(OCC)OCC
inactive

Quick one: give measured outcome for CNC(=O)Oc1ccc2c(c1)[C@]1(C)CCN(C)[C@@H]1N2C
inactive

---

testDetails: qHTS assay to identify small molecule antagonists of the thyroid receptor (TR) signaling pathway - cell viability counter screen (AID 743064); note: nearly all actives have a fitted effect of over 50% in size
setupConditions: GH3.TRE-Luc viability, CellTiter-Fluor, 24 h; series mostly up to 70.3 µM
Description: National Center for Advancing Translational Sciences [NCATS] NIH Chemical Genomics Center [NCGC] U.S. Environmental Protection Agency [EPA] National Institutes of Environmental Health Sciences [NIEHS] National Toxicology Program [NTP] U.S. Food and Drug Administration [FDA] Thyroid receptor (TR), a nuclear hormone receptor, plays an important role in development, proliferation, differentiation, metabolism, brain function, and cardiovascular system. […]
Results filed as inconclusive are left out. Active and inactive are the calls of the source. Calls come from the whole dose curve; as a rule, active = well fitted cell-killing curve with a large enough effect in the repeat runs; inconclusive = weak or mixed curves, or effect the other way; inactive = no such curve, though single readings can be large or run the other way.
Thanks in advance; please answer with one of these: T (active), F (inactive)

Example results:
Brc1ccc(Br)c(Br)c1
F
CCOCCOCCOCCO
F

Name the outcome recorded for C[Si]1(C)O[Si](C)(C)O[Si](C)(C)O[Si](C)(C)O1 in the assay.
F

Name the outcome recorded for COC(=O)CCCC(=O)OC in the assay.
F

Name the outcome recorded for O=S(=O)(O)c1ccccc1 in the assay.
F

Name the outcome recorded for CC(=O)OCCOC(C)=O in the assay.
F

Name the outcome recorded for Cc1ccc(C(C)C)c(O)c1 in the assay.
T

Name the outcome recorded for CCCCCCCCCCO in the assay.
F

---

measuredOn: Retinoic acid receptor RXR-alpha (Homo sapiens)
testDetails: qHTS assay to identify small molecule agonists of the RXR signaling pathway (AID 1159527); note: nearly all actives have a fitted effect of over 35% in size
setupConditions: HEK293T RXRa-UAS-bla, beta-lactamase ratio, 16 h; series mostly up to 76.8 µM
Inconclusive results are not listed. Activity calls are given as the source filed them. Calls follow the shape of the full dose curve.
Thanks in advance; please answer with one of these: 1 = active, 0 = inactive

Example results:
CC(=O)CC(C)(C)O
0
CCCCCCC=O
0
O=C(O)Cn1c(=O)n(Cc2ccc(Br)cc2F)c(=O)c2ccc(Cl)cc21
0
c1ccc(Oc2ccccc2)cc1
0
CCCCCCCCCCO
0

Proceed to the following item.
Name the outcome recorded for CC(=O)Oc1ccc(C)cc1 in the assay.
0
